# experimental target: SARS-CoV-2 3CL protease (Severe acute respiratory syndrome coronavirus 2, UniProt P0DTD1)
# run description: Inhibitory activity test against SARS-CoV-2 3CL proteases
# Assay type: biochemical
# stated conditions: read-out: IC50 (50% SARS-CoV-2 3CL protease inhibitory concentration)
pIC50: −log10 of the molar value.
Decision: pIC50 >= 8 yields satisfied, all other cases yield not satisfied.

Solved cases below.
INSERT INTO assay_data (compound, discrete_label) VALUES
  ('COc1cc(-c2c(Cl)ccc3c2CN(C)C3=O)cc2c1c(=O)n(Cc1ncn(C)n1)c(=O)n2Cc1cc(F)c(F)c(F)c1', 'not satisfied'),
  ('COc1cc(-c2cc(S(N)(=O)=O)ccc2Cl)cc2c1c(=O)n(-c1cncc(C)c1)c(=O)n2Cc1ccc(F)c(C#N)c1', 'satisfied'),
  ('O=c1[nH]cccc1Cn1c(=O)c2ccc3ccccc3c2n(Cc2cc(F)c(F)c(F)c2)c1=O', 'not satisfied');

Query: Please indicate if the recorded pIC50 for N#Cc1ccc(Cl)c(-c2cc3c(c4c2C(O)CO4)c(=O)n(-c2cncc(Cl)c2)c(=O)n3Cc2cc(F)c(F)c(F)c2)c1 (stereo not shown) meets or exceeds 8.
Result: satisfied

Query: Could you verify whether the entry `COc1nc(N2CC[C@@H](O)C2)cc2c1c(=O)n(Cc1ncn(C)n1)c(=O)n2Cc1cc(F)c(F)c(Cl)c1` shows pIC50 of no less than 8?
Result: not satisfied

Query: Test whether the compound `Cn1cnc(Cn2c(=O)c3c4nccnc4c(N4CC(F)(F)C(F)(F)C4)cc3n(Cc3cc(F)c(F)c(Cl)c3)c2=O)n1` records pIC50 of 8 or higher.
Result: not satisfied

Query: # check: pIC50 of COc1cc(-c2cc(S(C)(=N)=O)ccc2Cl)cc2c1c(=O)n(-c1cncc(Cl)c1)c(=O)n2Cc1cc(F)c(F)c(F)c1 (stereo not shown) is greater than or equal to 8
Result: satisfied

----------
# Test system: SARS-CoV-2
# run description: Inhibitory activity of cytopathic effect (CPE) in HEK293T/ACE2-TMPRSS2 cells
# Assay type: cell-based
# stated conditions: Severe acute respiratory syndrome coronavirus 2, HEK-293T, 72 h; 50% SARS-CoV-2 infected cell death inhibitory concentration; HEK293T/ACE2-TMPRSS2 cells; CellTiter-Glo 2.0 after 3 days culture; read-out: EC50
EC50 values by entry
The response must be a number in nM with no trailing unit.

Some entries whose results are on file:
INSERT INTO results (compound, numeric_value) VALUES
  ('Cn1c(-c2cc(C#N)ccc2Cl)cc2c(c1=O)c(=O)n(-c1cnc3ccc(Cl)cn13)c(=O)n2Cc1cc(F)c(F)c(F)c1 [Compound I-0741]', 105),
  ('Cn1cnc(Cn2c(=O)c3c4nccnc4c(-c4cc(C(C)(C)O)ccc4Cl)cc3n(Cc3cc(F)c(F)c(Cl)c3)c2=O)n1 [Compound I-0810]', 19.4),
  ('CNC(=O)c1ccc(Cl)c(-c2cc3c(nc2OC)c(=O)n(Cc2ncn(C)n2)c(=O)n3Cc2cc(F)c(F)c(Cl)c2)n1 [Compound I-0878]', 13.7),
  ('CCNC(=O)[C@@H]1CCN(c2cc3c(c(OC)n2)c(=O)n(-c2cnc4cc(F)ccn24)c(=O)n3-c2ccc(F)c(Cl)c2)C1 [Compound I-0626]', 55.2),
  ('COc1nc2c(=O)n(Cc3ncn(C)n3)c(=O)n(Cc3cc(F)c(F)c(Cl)c3)c2cc1-c1nc(C(=O)NC(C)C)ccc1Cl [Compound I-0883]', 30.2),
  ('COc1nc(N2CC[C@@H](F)C2)cc2c1c(=O)n(Cc1ncn(C)n1)c(=O)n2-c1cc(F)c(Cl)c(Cl)c1 [Compound I-0802]', 11.2),
  ('COc1nc(N2CCOCC2)cc2c1c(=O)n(-c1cnc3cc(F)ccn13)c(=O)n2-c1ccc(F)c(Cl)c1 [Compound I-0743]', 19.3),
  ('COc1cc(-c2cc(C#N)ccc2Br)cc2c1c(=O)n(Cc1ncn(C)n1)c(=O)n2Cc1cc(F)c(F)c(F)c1 [Compound I-0891]', 12.1);

Query: Identify measured EC50 corresponding to COc1nc(N2CC[C@@H](F)C2)cc2c1c(=O)n(-c1cnc3cc(F)ccn13)c(=O)n2-c1ccc(F)c(Cl)c1 [Compound I-0746]
Result: 5.6

Query: Identify the reported EC50 for the following entry. COc1nc(N2CC[C@@H](O)C2)cc2c1c(=O)n(-c1cncc(C#N)c1)c(=O)n2-c1ccc(F)c(Cl)c1 [Compound I-0957]
Result: 8.14

Query: Fill in reported EC50 for this entry: Cn1cnc(Cn2c(=O)c3nc(OCC#N)c(-c4cc(C#N)ccc4Cl)cc3n(Cc3cc(F)c(F)c(F)c3)c2=O)n1 [Compound I-0685]
Result: 82.2

Query: Entry COc1nc(C2CCOCC2)cc2c1c(=O)n(-c1cnc3cc(F)ccn13)c(=O)n2-c1ccc(F)c(Cl)c1 [Compound I-1021] needs its EC50 filled in; supply it.
Result: 16.1

Query: # return recorded EC50 for input Cn1cnc(Cn2c(=O)c3c4ncn(C)c4c(-c4cc(C#N)ccc4Cl)cc3n(Cc3cc(F)c(F)c(F)c3)c2=O)n1 [Compound I-0556]
Result: 376

Query: Answer with reported EC50 of COc1cc(-c2c(Cl)ccc3c2CCC(=O)N3C)cc2c1c(=O)n(Cc1ncn(C)n1)c(=O)n2Cc1cc(F)c(F)c(F)c1 [Compound I-0868]
Result: 21.4

Query: Input Cn1c(-c2cc(C#N)ccc2Cl)cc2c(c1=O)c(=O)n(-c1cnc3cc(F)ccn13)c(=O)n2Cc1cc(F)c(F)c(F)c1 [Compound I-0727] , output reported EC50.
Result: 102

Query: Identify the reported EC50 for the following entry. COc1nc2c(=O)n(Cc3ncn(C)n3)c(=O)n(Cc3cc(F)c(F)c(Cl)c3)c2cc1-c1cc(N=S(C)(C)=O)ccc1Cl [Compound I-0887]
Result: 98.2

Provenance of the data: patent US20240400560A1
